Data provenance: patent US9849104B2

system: CYP1A2, CYP2A6, CYP2C9, CYP2C19, CYP2D6, CYP2E1, CYP3A4; experiment: in vitro; settings: human, microsomes
assay_metric: IC50

So, CC(C)(CCCCOCCCCC(C)(C)C(=O)O)C(=O)O [Gemcabene, 6,6′-oxybis(2,2-dimethylhexanoic acid)] ? Its IC50 was > 454 µg/mL

----------
Biological target: CYP2C9 (Homo sapiens)
Construct: Human livers, HLM141, HLM143, and HLM144 were selected from the University of Washington Human Liver Bank for this study; Microsomes were prepared; tissue University of Washington Human Liver Bank HLM141, HLM143, HLM144; host or cells: human liver microsomes
Sequence (P11712 whole entry): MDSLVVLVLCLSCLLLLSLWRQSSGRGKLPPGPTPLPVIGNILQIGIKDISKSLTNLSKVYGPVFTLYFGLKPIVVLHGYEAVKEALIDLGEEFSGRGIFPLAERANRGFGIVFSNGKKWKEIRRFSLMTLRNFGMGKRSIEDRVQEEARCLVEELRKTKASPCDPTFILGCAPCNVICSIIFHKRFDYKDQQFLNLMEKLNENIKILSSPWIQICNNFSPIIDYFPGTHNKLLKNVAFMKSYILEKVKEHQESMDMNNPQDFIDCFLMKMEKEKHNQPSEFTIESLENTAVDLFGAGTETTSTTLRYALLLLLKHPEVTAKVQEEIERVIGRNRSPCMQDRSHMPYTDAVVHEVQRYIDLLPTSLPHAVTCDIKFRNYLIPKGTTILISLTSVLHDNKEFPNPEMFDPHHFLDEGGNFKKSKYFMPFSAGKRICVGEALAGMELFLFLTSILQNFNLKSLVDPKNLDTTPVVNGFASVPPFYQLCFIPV
Experiment: Inhibition of CYP2C9 (7-hydroxylation of (S)-warfarin) in human liver microsomes
Type: in vitro ADME
Conditions: probe (S)-warfarin (7-hydroxylation), 4 μM, read-out: inhibitory activity toward CYP2C9
Description: Human livers, HLM141, HLM143, and HLM144 were selected from the University of Washington Human Liver Bank for this study. […] The seven isoforms and the metabolic pathway of each of the probes used to monitor specific isoform activity are listed below. CYP2C9: The 7-hydroxylation of (S)-warfarin (4 μM). The reaction is monitored by quantitative GC/MS using 7-hydroxywarfarin-(d5-phenyl) as the internal standard.
assay_metric: inhibition at 1500 µM

So, CC(C)(CCCCOCCCCC(C)(C)C(=O)O)C(=O)O [Gemcabene, 6,6′-oxybis(2,2-dimethylhexanoic acid)] ? Its inhibition at 1500 µM was 10 to 20%

----------
biological target: CYP2A6 (Homo sapiens, UniProt P11509); construct: Human livers, HLM141, HLM143, and HLM144 were selected from the University of Washington Human Liver Bank for this study; Microsomes were prepared; tissue University of Washington Human Liver Bank HLM141, HLM143, HLM144; host or cells: human liver microsomes; assay: Inhibition of CYP2A6 (7-hydroxylation of coumarin) in human liver microsomes; format: in vitro ADME; conditions: probe coumarin (7-hydroxylation), 4 μM, read-out: inhibitory activity toward CYP2A6
Sequence (P11509 whole entry): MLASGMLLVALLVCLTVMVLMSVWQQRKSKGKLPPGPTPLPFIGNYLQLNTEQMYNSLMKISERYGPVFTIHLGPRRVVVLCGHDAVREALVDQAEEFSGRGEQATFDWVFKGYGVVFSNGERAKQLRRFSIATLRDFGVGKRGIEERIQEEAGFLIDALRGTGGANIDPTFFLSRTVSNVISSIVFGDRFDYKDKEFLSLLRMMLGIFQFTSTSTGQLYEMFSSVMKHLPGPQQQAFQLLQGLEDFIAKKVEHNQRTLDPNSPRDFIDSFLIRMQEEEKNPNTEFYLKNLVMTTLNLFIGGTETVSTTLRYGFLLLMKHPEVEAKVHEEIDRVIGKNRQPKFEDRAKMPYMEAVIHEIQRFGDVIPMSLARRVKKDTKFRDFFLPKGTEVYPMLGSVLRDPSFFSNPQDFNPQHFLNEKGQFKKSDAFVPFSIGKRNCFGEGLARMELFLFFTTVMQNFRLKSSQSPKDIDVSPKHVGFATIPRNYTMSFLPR
assay_metric: inhibition at 1500 µM

Param item: CC(C)(CCCCOCCCCC(C)(C)C(=O)O)C(=O)O ; param system: CYP2A6 (Homo sapiens, UniProt P11509); output inhibition at 1500 µM: 10 to 20%
